Entry source: patent US8916551B2

Target: AMPA receptor (human GluR1 flip/stargazin expressed in CHO-K1 cells) (Homo sapiens, UniProt P42261)
Construct: expressed in transfected cells; host or cells: CHO-K1
Sequence (P42261 19-906 isoform P42261-2 limits assumed): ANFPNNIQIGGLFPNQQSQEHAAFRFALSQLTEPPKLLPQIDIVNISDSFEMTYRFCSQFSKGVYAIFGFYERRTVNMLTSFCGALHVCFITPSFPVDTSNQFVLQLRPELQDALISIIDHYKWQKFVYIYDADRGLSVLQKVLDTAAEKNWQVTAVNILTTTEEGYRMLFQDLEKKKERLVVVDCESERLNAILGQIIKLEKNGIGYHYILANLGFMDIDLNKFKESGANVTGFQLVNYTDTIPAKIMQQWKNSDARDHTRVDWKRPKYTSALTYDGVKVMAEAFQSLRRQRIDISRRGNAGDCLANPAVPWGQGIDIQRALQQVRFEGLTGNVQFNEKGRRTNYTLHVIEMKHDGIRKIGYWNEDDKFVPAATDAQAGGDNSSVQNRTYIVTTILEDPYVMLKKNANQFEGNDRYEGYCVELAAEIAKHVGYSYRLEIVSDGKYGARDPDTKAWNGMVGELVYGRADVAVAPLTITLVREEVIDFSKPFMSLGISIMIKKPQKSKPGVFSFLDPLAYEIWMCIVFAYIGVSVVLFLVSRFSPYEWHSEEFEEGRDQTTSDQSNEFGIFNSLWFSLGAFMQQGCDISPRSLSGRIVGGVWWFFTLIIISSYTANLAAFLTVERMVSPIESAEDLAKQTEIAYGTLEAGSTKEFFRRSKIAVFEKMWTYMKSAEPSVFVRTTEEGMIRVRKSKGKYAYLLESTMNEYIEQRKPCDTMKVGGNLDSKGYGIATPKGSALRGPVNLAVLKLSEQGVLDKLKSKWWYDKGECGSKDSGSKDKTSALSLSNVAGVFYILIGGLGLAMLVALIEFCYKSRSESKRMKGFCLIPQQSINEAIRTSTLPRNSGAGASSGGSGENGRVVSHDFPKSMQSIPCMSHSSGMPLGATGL
Sequence (Q9Y698 whole entry partner): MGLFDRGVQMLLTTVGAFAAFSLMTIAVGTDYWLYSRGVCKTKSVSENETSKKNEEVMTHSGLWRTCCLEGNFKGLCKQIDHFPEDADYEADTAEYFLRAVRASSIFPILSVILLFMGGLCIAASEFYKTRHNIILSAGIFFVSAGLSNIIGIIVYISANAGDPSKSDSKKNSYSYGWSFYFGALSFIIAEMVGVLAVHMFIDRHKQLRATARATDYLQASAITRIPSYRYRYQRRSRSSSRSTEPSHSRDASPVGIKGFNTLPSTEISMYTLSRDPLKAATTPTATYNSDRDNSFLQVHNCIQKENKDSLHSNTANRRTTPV
Test: AMPA receptor function enhancing activity using calcium influx as index
Type: cell-based
Settings: test compound 30 μM with glutamic acid final 3 mM, change in fluorescence in 3 min, 100% = 3 mM glutamic acid + 300 μM cyclothiazide, 0% = 3 mM glutamic acid only
assay metric: activity (%)

Q. Return activity (%) (reported value) for this compound: Cc1ccccc1Oc1ccc(C2CCCN3CCS(=O)(=O)N=C23)cc1 (stereo not drawn)
A. 69

Q. Tell me measured activity (%) for Cn1ccc2cc(C3=CC=CN4CCS(=O)(=O)N=C34)ccc21 please.
A. 91

Q. Return activity (%) for the following compound: O=S1(=O)CCN2CCCC(COc3ccc4c(c3)CCCC4)C2=N1 (stereo not drawn)
A. 82

Q. Note activity (%) for the compound shown: Cc1ccc(Oc2ccc(C3CCCN4CCS(=O)(=O)N=C34)cc2)cc1 (stereo not drawn) [Example 109]
A. 88

Q. Determine from records and report activity (%) for O=S1(=O)CCN2C=CC=C(c3ccc(C4(F)COC4)cc3)C2=N1
A. 82

Q. Specify activity (%) for CC(C)Oc1ccc(C2=CC=CN3CCS(=O)(=O)N=C23)cc1F and stop.
A. 85

Q. Give activity (%) for the following compound: COc1cccc(-c2ccc(C3CCCN4CCS(=O)(=O)N=C34)cc2)c1 (stereo not drawn)
A. 98

Q. Give reported activity (%) value for Cc1ccc(C(F)(F)c2ccc(C3CCCN4CCS(=O)(=O)N=C34)cc2)cc1 (stereo not drawn) [Example 138]
A. 71

Q. Report measured activity (%); entry is Cc1cc(C2CCCN3CCS(=O)(=O)N=C23)ccc1-c1ccccc1 (stereo not drawn) [Example 102]
A. 71
